System: Staphylococcus aureus MW2 (mecA+)
test.summary: normalized DsRed fluorescence (growth of mecA+ strain) (fraction of control range); higher = more growth of mecA+ strain
test.settings: compound concentration: 150 uM; cefoxitin: subinhibitory; fluorescent label: DsRed
Rule: Met for normalized DsRed fluorescence not less than 0.7, Not met for anything less.

Solved cases below.
[
  {
    "compound": "CC1=C(/C=C/C(C)=C/C=C/C(C)=C\\C(=O)O)C(C)(C)CCC1",
    "group": "Not met"
  },
  {
    "compound": "CCC(=O)O[C@]1(C(=O)SCF)[C@H](C)C[C@H]2[C@@H]3C[C@H](F)C4=CC(=O)C=C[C@]4(C)[C@@]3(F)[C@@H](O)C[C@@]21C",
    "group": "Met"
  },
  {
    "compound": "C[N+](C)(C)C[C@H](O)CC(=O)[O-]",
    "group": "Met"
  }
]

Task: Form field: normalized DsRed fluorescence at least 0.7? Entry: CC(C)Cn1cnc2c(N)nc3ccccc3c21
Output: Met

Task: Form field: normalized DsRed fluorescence at least 0.7? Entry: Nc1nc(F)nc2c1ncn2[C@@H]1O[C@H](COP(=O)(O)O)[C@@H](O)[C@@H]1O
Output: Not met

Task: Form field: normalized DsRed fluorescence at least 0.7? Entry: Nc1nc2c(ncn2COC(CO)CO)c(=O)[nH]1
Output: Met

Task: Form field: normalized DsRed fluorescence at least 0.7? Entry: CC(=O)O[C@H]1CC[C@@]2(C)C(=CC[C@@H]3[C@@H]2CC[C@]2(C)C(c4cccnc4)=CC[C@@H]32)C1 [Abiraterone Acetate (CB7630)]
Output: Not met

Task: Form field: normalized DsRed fluorescence at least 0.7? Entry: Nc1ccc(C(=O)NCC(=O)O)cc1
Output: Not met

Task: Form field: normalized DsRed fluorescence at least 0.7? Entry: CCCCNC(=O)NS(=O)(=O)c1ccc(C)cc1
Output: Not met
